Test: Hemolytic activity in human erythrocytes at 1 mg/ml
Type: ADME, cell-based, Erythrocyte
Details: read-out: Activity
*1 amine or outer side, *2 acyl side, *3 side chain or, on linkers, in order; H or OH if unused. Where a SMILES comes first, the peptide text is derived from it. Bridges are numbered along the chain shown (N, C = ends). [ ]: non-standard residue; d: D form. The star is where a group is joined. ξ: configuration not given here. hTyr(3S-OH,4S-OH,3'-OSO3H) = N[C@H](C(=O)O)[C@H](O)[C@@H](O)c1ccc(O)c(OS(=O)(=O)O)c1; Orn(4R-OH,5R-OH) = O=C([C@H](C[C@@H](O)[C@@H](O)N[*:3])N[*:1])[*:2]; X4 = CCCCCCOc1ccc(-c2nnc(-c3ccc(C(=O)*)cc3)s2)cc1; Pro(3S-OH,4S-Me) = C[C@H]1CN[C@H](C(=O)O)[C@H]1O; X3 = CCCCOc1ccc(-c2ccc(-c3ccc(C(=O)*)cc3)cc2)cc1; X7 = CCCCCCOc1ccc(C2CCN(c3ccc(C(=O)*)cc3)CC2)cc1; Gln(3R-OH) = NC(=O)C[C@@H](O)[C@H](N)C(=O)O; Hyp = O=C(O)[C@@H]1C[C@@H](O)CN1; ξThr(3R) = C[C@@H](O)C(N)C(=O)O
measured property: hemolysis at 1 mg/ml (%)
Lab book: enter the figure in %, no units written.

Examples with their reported hemolysis at 1 mg/ml follow.
compound	measured property	quantitative result
CCCCCCOc1ccc(C2CCN(c3ccc(C(=O)N[C@H]4C[C@@H](O)[C@@H](O)NC(=O)[C@@H]5[C@@H](O)[C@@H](C)CN5C(=O)[C@H]([C@H](O)CC(N)=O)NC(=O)[C@H]([C@H](O)[C@@H](O)c5ccc(O)c(OS(=O)(=O)[O-])c5)NC(=O)[C@@H]5C[C@@H](O)CN5C(=O)C([C@@H](C)O)NC4=O)cc3)CC2)cc1.[Na+] (stereo partly drawn) (X7-[Orn(4R-OH,5R-OH)][ξThr(3R)][Hyp][hTyr(3S-OH,4S-OH,3'-OSO3H)][Gln(3R-OH)][Pro(3S-OH,4S-Me)]; lactam 1-C)	hemolysis at 1 mg/ml	33
CCCCCCOc1ccc(-c2nnc(-c3ccc(C(=O)N[C@H]4C[C@@H](O)[C@@H](O)NC(=O)[C@@H]5[C@@H](O)[C@@H](C)CN5C(=O)[C@H]([C@H](O)CC(N)=O)NC(=O)[C@H]([C@H](O)[C@@H](O)c5ccc(O)c(OS(=O)(=O)[O-])c5)NC(=O)[C@@H]5C[C@@H](O)CN5C(=O)C([C@@H](C)O)NC4=O)cc3)s2)cc1.[Na+] (stereo partly drawn) (X4-[Orn(4R-OH,5R-OH)][ξThr(3R)][Hyp][hTyr(3S-OH,4S-OH,3'-OSO3H)][Gln(3R-OH)][Pro(3S-OH,4S-Me)]; lactam 1-C)	hemolysis at 1 mg/ml	42

Inquiry: Supply measured hemolysis at 1 mg/ml of CCCCOc1ccc(-c2ccc(-c3ccc(C(=O)N[C@H]4C[C@@H](O)[C@@H](O)NC(=O)[C@@H]5[C@@H](O)[C@@H](C)CN5C(=O)[C@H]([C@H](O)CC(N)=O)NC(=O)[C@H]([C@H](O)[C@@H](O)c5ccc(O)c(OS(=O)(=O)[O-])c5)NC(=O)[C@@H]5C[C@@H](O)CN5C(=O)[C@H]([C@@H](C)O)NC4=O)cc3)cc2)cc1.[Na+] (X3-[Orn(4R-OH,5R-OH)]T[Hyp][hTyr(3S-OH,4S-OH,3'-OSO3H)][Gln(3R-OH)][Pro(3S-OH,4S-Me)]; lactam 1-C) in your reply.
Reply text: 79

Source: ChEMBL document CHEMBL1145626
